target: WT HER2 (Homo sapiens (Human), UniProt P04626); assay: HER2 (Y1248) phosphorylation in BT474 cells (MSD); settings: p-HER2 (Y1248)/total HER2, 4 h, read-out: HER2 WT Amplification BT474 IC50
Sequence (P04626 23-1255): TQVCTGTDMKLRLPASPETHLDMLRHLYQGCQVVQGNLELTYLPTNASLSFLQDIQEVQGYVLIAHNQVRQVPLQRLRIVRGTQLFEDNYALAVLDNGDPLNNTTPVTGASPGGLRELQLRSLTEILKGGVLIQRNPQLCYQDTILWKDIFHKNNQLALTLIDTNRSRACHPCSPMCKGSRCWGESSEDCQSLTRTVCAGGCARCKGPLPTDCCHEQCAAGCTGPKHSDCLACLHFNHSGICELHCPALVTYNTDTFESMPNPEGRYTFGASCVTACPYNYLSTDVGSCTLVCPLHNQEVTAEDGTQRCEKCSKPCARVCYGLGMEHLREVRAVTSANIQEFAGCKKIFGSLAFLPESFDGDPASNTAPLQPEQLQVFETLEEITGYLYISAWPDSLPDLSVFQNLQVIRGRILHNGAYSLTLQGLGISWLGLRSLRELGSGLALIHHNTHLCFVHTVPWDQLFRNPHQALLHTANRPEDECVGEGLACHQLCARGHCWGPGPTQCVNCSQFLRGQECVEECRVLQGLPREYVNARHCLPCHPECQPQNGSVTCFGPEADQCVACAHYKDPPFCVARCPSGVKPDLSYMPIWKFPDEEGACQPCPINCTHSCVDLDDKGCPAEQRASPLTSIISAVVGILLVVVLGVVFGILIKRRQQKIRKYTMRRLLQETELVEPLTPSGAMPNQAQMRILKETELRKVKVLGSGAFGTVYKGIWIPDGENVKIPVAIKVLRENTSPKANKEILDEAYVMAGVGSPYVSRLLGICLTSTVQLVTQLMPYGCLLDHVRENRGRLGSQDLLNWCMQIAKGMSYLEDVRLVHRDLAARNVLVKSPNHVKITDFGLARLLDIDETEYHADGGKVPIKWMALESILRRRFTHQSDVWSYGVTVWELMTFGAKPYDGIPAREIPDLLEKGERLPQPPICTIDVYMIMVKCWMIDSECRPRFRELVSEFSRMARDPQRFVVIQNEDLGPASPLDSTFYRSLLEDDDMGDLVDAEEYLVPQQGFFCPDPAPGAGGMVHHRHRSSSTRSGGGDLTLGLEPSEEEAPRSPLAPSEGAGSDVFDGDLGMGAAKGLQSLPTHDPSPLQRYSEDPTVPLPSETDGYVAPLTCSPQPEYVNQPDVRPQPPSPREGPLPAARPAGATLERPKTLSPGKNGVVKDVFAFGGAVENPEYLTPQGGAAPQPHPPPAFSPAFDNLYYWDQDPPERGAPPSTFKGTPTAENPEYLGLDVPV
MEASURED_PROPERTY: IC50 (nM)

Cc1cc(Nc2ncnc3cc(N)cc(OC4CCN(C)CC4(F)F)c23)ccc1Oc1ccn2ncnc2c1 (single isomer, unassigned) :: 7.86

I = Cc1cc(Nc2ncnc3ccc(NC4=NC(C)(C)CO4)cc23)ccc1Oc1ccn2ncnc2c1 [ONT380, reference compound]
II = Cc1cc(Nc2ncnc3cc(OC4CCOC4)cc(OC4CCN(C)CC4(F)F)c23)ccc1Oc1ccn2ncnc2c1 (single isomer, unassigned)
// which entry reports the smaller IC50, I or II ? Lab log: write the label of the selected item as the result.
I

Source listed as patent US10822334B2.
